TARGET DESC: Sigma non-opioid intracellular receptor 1 (Cavia porcellus)
Sequence (Q60492 whole entry): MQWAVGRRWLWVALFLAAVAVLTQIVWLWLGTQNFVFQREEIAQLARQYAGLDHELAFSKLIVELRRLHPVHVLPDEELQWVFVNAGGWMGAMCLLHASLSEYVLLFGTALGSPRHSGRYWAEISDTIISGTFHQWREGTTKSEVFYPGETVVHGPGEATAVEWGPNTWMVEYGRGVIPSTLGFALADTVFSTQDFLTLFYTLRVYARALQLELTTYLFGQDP
PROTOCOL DESCRIPTION: Displacement of [3H]-(+)pentazocine from sigma-1 receptor in guinea pig brain membranes after 120 mins by scintillation counting method
Assay type: cell membranes
For each of the compounds below, state its pKi.
Keep it numeric: pKi is minus log10 of the concentration in mol/L.

Requested field: pKi. Item: COc1ccc2c(c1)CCN(CCCCc1cccs1)CC2O (configuration not stated)
6.47

Requested field: pKi. Item: COc1ccc2c(c1)CCN(CCCCc1cccnc1)CC2O (configuration not stated)
6.56

Requested field: pKi. Item: COc1ccc2c(c1)CCN(CCC#Cc1ccccc1)CC2O (configuration not stated)
6.25

Requested field: pKi. Item: Oc1ccc2c(c1)CCN(CCCCc1ccc(OCCF)cc1)CC2O (configuration not stated)
6.15

Requested field: pKi. Item: COc1ccc2c(c1)CCN(CCCC#Cc1ccccc1)CC2O (configuration not stated)
6.79

Requested field: pKi. Item: COc1ccc2c(c1)CCN(CCCCc1ccccc1OCCF)CC2O (configuration not stated)
6.15

Requested field: pKi. Item: COc1ccc2c(c1)CCN(CCC#Cc1ccc(OCCF)cc1)CC2O (configuration not stated)
6.15
